- protocol.description: Confirmation screen for delayed death inhibitors of the malarial parasite plastid, 48 hour incubation; also: nearly all actives have a fitted effect of over 65% in size; also: potency is read from the fitted curve at half-maximal effect
- study.conditions: P. falciparum-infected erythrocytes, luciferase growth; series mostly up to 28.7 µM
In all, about 2,300 compounds went through this assay and about 1,200 (52%) were called active. Inconclusive results (about 34%) are left out. The set was probably picked from earlier hits. This is one part of the list.
A collection of compounds and their measured Potency

CCCNC(=O)c1ccc(S(=O)(=O)c2ccc(OC)cc2)c([N+](=O)[O-])c1 7.94 µM (active)

[ask] Consider the compound CC(C)CCSc1nc(N)c(C#N)cc1C#N and give its recorded Potency.
[reply] 6.31 µM (active)

[ask] Consider the compound C[N+]1(CCCCSc2ccc(O)cc2)CCCCC1 and give its recorded Potency.
[reply] 7.08 µM (active)

[ask] Consider the compound COc1ccc2c(c1)c(C(=O)N/N=C/c1ccc(OC)c(OC)c1)c(C)n2C and give its recorded Potency.
[reply] 10 µM (active)

[ask] Consider the compound CCCCOc1ccc(NC2=NC3(CCCC3)N=C(N)N2)cc1 and give its recorded Potency.
[reply] 1.41 µM (active)

* * *

- protocol.description: Confirmation screen for delayed death inhibitors of the malarial parasite plastid, 48 hour incubation; also: nearly all actives have a fitted effect of over 65% in size; also: potency is read from the fitted curve at half-maximal effect
- study.conditions: P. falciparum-infected erythrocytes, luciferase growth; series mostly up to 28.7 µM
In all, about 2,300 compounds went through this assay and about 1,200 (52%) were called active. Inconclusive results (about 34%) are left out. So high a share suggests a set chosen from earlier hits. The list shows a part of the results.
readout.type: Potency

molecule	Potency
COc1cccc(NC(=O)c2ccc3c(c2)C(=O)N(CC2CCCO2)C3=O)c1 (stereo unspecified)	inactive
COc1cccc(C(=O)/C=C/c2ccc(OCC#N)c(OC)c2)c1	10 µM (active)
COc1ccc(CCNC(=O)/C(=C/c2cccnc2)NC(=O)c2ccccc2)cc1OC	12.6 µM (active)
CCSc1nnc(N2C(=O)c3ccc(C(=O)c4ccc(C(=O)O)cc4)cc3C2=O)s1	inactive
CCOC(=O)C1CCN(C(=O)C(=O)Nc2ccc3nc4n(c(=O)c3c2)CCCCC4)CC1	14.1 µM (active)
Cc1cccc(-n2ncc3c2CCCC3NC(=O)C2=CC(=O)CC(C)(C)O2)c1C (stereo unspecified)	15.8 µM (active)
O=C(c1ccccc1Br)N1CCN(c2ccccn2)CC1	inactive
COc1ccc(OC)c(NC(=O)c2ccccc2N(C)S(=O)(=O)c2ccc(C)cc2)c1	14.1 µM (active)
COc1ccc(C(=O)NC2CCCc3c2cnn3-c2cccc(C)c2C)o1 (stereo unspecified)	12.6 µM (active)
O=C(CCCN1C(=O)/C(=C\c2cccs2)SC1=S)Nc1ccc(O)cc1	11.2 µM (active)

[ask] Consider the molecule Cc1ccc(C(=O)OCc2nnc(-c3ccc(Br)cc3)o2)cc1 and give its recorded Potency.
[reply] inactive

[ask] Consider the molecule COc1ccc(OC)c(NC(=O)c2nc(S(=O)(=O)Cc3ccccc3)ncc2Cl)c1 and give its recorded Potency.
[reply] inactive

[ask] Consider the molecule CCn1cc(C(=O)O)c(=O)c2cc(F)c(N/N=C/c3ccccc3)cc21 and give its recorded Potency.
[reply] 12.6 µM (active)

[ask] Consider the molecule COc1cc(/C=N/NC(=S)Nc2cccc(S(=O)(=O)N(C)C)c2)cc(OC)c1O and give its recorded Potency.
[reply] inactive

[ask] Consider the molecule CN(c1ccccc1)S(=O)(=O)c1ccc(NC(=O)c2nc(S(C)(=O)=O)ncc2Cl)cc1 and give its recorded Potency.
[reply] inactive

[ask] Consider the molecule COC(=O)c1ccc(COc2ccccc2/C=N/O)o1 and give its recorded Potency.
[reply] inactive

[ask] Consider the molecule Cc1c(O)ccc2c(CN(C)Cc3ccccc3)cc(=O)oc12 and give its recorded Potency.
[reply] 14.1 µM (active)

[ask] Consider the molecule Cc1c(OCC(=O)NCc2cccnc2)ccc2c3c(c(=O)oc12)CCC3 and give its recorded Potency.
[reply] inactive

[ask] Consider the molecule O=C(/C=C/c1cccs1)Nc1sc2c(c1C(=O)O)CCCC2 and give its recorded Potency.
[reply] inactive

[ask] Consider the molecule CCOC(=O)Nc1ccc2c(CNC(C)c3ccccc3OC)cc(=O)oc2c1 (stereo unspecified) and give its recorded Potency.
[reply] 14.1 µM (active)

[ask] Consider the molecule C=C1C(=O)O[C@@H]2C[C@@H](C)[C@@H]3C=CC(=O)[C@@]3(C)[C@@H](OC(C)=O)[C@H]12 and give its recorded Potency.
[reply] 1.58 µM (active)

[ask] Consider the molecule COc1cc(/C=C/C(=O)c2ccc(O)cc2)ccc1OCC#N and give its recorded Potency.
[reply] 12.6 µM (active)

[ask] Consider the molecule CN(C)c1ccc(CNc2ncnc3sccc23)cc1 and give its recorded Potency.
[reply] inactive

[ask] Consider the molecule O=C(CCCN1C(=O)/C(=C/c2cccs2)SC1=S)Nc1ccc(O)cc1 and give its recorded Potency.
[reply] 11.2 µM (active)

[ask] Consider the molecule CCc1c(C(=O)NC2CCCc3ccccc32)[nH]c(C)c1C(C)=O (stereo unspecified) and give its recorded Potency.
[reply] inactive

[ask] Consider the molecule O=C(Nc1ccccc1F)c1ccc(CN2CCN(c3ccccc3)CC2)cc1 and give its recorded Potency.
[reply] inactive

* * *

- protocol.description: Confirmation screen for delayed death inhibitors of the malarial parasite plastid, 48 hour incubation; also: nearly all actives have a fitted effect of over 65% in size; also: potency is read from the fitted curve at half-maximal effect
- study.conditions: P. falciparum-infected erythrocytes, luciferase growth; series mostly up to 28.7 µM
About 1,200 (52%) of roughly 2,300 compounds were called active. Inconclusive results (about 34%) are left out. So high a share suggests a set chosen from earlier hits. The list shows a part of the results.
readout.type: Potency

compound	readout.type	measured.result
COc1cc(C(=O)Nc2ccc(S(=O)(=O)Nc3cc(C)on3)cc2)cc(OC)c1OC	Potency	inactive
O=C(Cn1c(=O)sc2ccccc21)Nc1nc2c(s1)CCCC2	Potency	inactive
COc1ccc(NS(=O)(=O)c2cc(OCC(N)=O)c(C)cc2Cl)cc1	Potency	7.08 µM (active)
CCC(C)[C@H](NC(=O)NCCCOC(C)C)C(=O)OC (stereo partly specified)	Potency	inactive
CC(Sc1nc2cc(Cl)ccc2s1)C(=O)Nc1cccc(S(=O)(=O)N2CCOCC2)c1 (stereo unspecified)	Potency	12.6 µM (active)

[ask] Consider the compound CC1=Nc2cc(C(=O)N3CCCC3)ccc2Sc2ccc(C)cc21 and give its recorded Potency.
[reply] 5.62 µM (active)

[ask] Consider the compound COc1cccc(CNC(=O)c2cc3oc4ccccc4c3n2C)c1OC and give its recorded Potency.
[reply] inactive

[ask] Consider the compound COc1ccccc1NC(=O)c1ccc2nc(-c3ccccc3)c(-c3ccccc3)nc2c1 and give its recorded Potency.
[reply] inactive

[ask] Consider the compound CC1(C)COC(/C=C/c2cccc([N+](=O)[O-])c2)=N1 and give its recorded Potency.
[reply] 14.1 µM (active)

[ask] Consider the compound N#CCc1ccc(C(=O)c2ccccc2F)s1 and give its recorded Potency.
[reply] inactive

[ask] Consider the compound CCCCN(CCCNC(=O)C1CCN(C(=O)c2cc3sccc3n2C)CC1)Cc1ccccc1 and give its recorded Potency.
[reply] 5.62 µM (active)

* * *

- protocol.description: Confirmation screen for delayed death inhibitors of the malarial parasite plastid, 48 hour incubation; also: nearly all actives have a fitted effect of over 65% in size
- study.conditions: P. falciparum-infected erythrocytes, luciferase growth; series mostly up to 28.7 µM
Hit rate of the full screen: of about 2,300 compounds, about 1,200 (52%) were called active. Roughly 34% stayed inconclusive and do not appear here. Calls follow the shape of the dose curve; as a rule, active = well fitted inhibition curve with a large enough effect; inconclusive = small, poorly fitted or top-dose-only effect, or effect the other way; inactive = no such curve, though single readings can be large or run the other way. The set was probably picked from earlier hits. The list shows a part of the results.
Hello, when you answer, please use one of the following outcomes: t = active, f = inactive

Completed entries (count: 10):
compound	classification
CC(C)(C)c1ccc(C(O)CCCN2CCC(C(O)(c3ccccc3)c3ccccc3)CC2)cc1 (stereo unspecified)	t
CC(=O)N1c2ccc(S(=O)(=O)NCCC(=O)NC3CCCC(C)C3C)cc2CC1C (stereo unspecified)	t
CC(C)/C=C/CN1CCN(CCCc2ccccc2)C(CCO)C1 (stereo unspecified)	t
Fc1ccc(C2CC(c3ccco3)=NN2c2ccccc2)cc1 (stereo unspecified)	f
Cc1onc(-c2c(F)cccc2Cl)c1-c1nnc(-c2ccc(C(F)(F)F)cc2)o1	t
CCC1S/C(=N/N=C/c2ccco2)N(Cc2ccccc2C)C1=O (stereo unspecified)	t
Cc1ccccc1C1=NC(C(F)(F)F)(C(F)(F)F)c2c(n(-c3ccc(F)cc3)c(=O)[nH]c2=O)N1	t
N#Cc1cc(Oc2cccc3cccnc23)c(-n2nnc3ccccc32)cc1C#N	t
COC(=O)c1cn(C)c2ccc(S(=O)(=O)N3CCCC3)cc2c1=O	f
Cc1c(C(c2ccc(Br)cc2)c2c(C)n(C)n(-c3ccccc3)c2=O)c(=O)n(-c2ccccc2)n1C	t

[ask] Dear all, I need the recorded test outcome for O=Cc1s/c(=N\S(=O)(=O)c2ccccc2)n(CCCCl)c1Cl , thank you.
[reply] f

* * *

- protocol.description: Confirmation screen for delayed death inhibitors of the malarial parasite plastid, 48 hour incubation; also: nearly all actives have a fitted effect of over 65% in size; also: potency is read from the fitted curve at half-maximal effect
- study.conditions: P. falciparum-infected erythrocytes, luciferase growth; series mostly up to 28.7 µM
The whole screen tested about 2,300 compounds, of which about 1,200 (52%) were called active. About 34% were inconclusive and are not listed. The set was probably picked from earlier hits. The list shows a part of the results.
readout.type: Potency

For orientation, consider the following solved cases.
molecule	Potency
Cc1c(NC(=O)CSc2nnc3c4ccccc4n(CCc4ccccc4)c3n2)c(=O)n(-c2ccccc2)n1C	11.2 µM (active)
CSc1ccc(C2c3[nH]c4ccccc4c3CCN2C(=O)c2ccnn2C)cc1 (stereo not drawn)	7.08 µM (active)
CC(C)N(c1ccccc1)c1ccc(NC(=O)CCl)cc1	11.2 µM (active)
COC(=O)[C@H](Cc1ccccc1)N(C)S(=O)(=O)c1cccc(S(=O)(=O)N(C)[C@@H](Cc2ccccc2)C(=O)OC)c1	12.6 µM (active)
O=[N+]([O-])c1cncc([N+](=O)[O-])c1Nc1cccc(O)c1	12.6 µM (active)

[ask] Consider the molecule COC(=O)C1C(=O)C2=C(CC1C)NC(C)=C(C(=O)OCCOc1ccccc1)C2c1ccc(C)o1 (stereo not drawn) and give its recorded Potency.
[reply] 14.1 µM (active)

[ask] Consider the molecule CCc1ccc(C2c3[nH]c4ccccc4c3CCN2C(=O)c2cc(C)nn2C)cc1 (stereo not drawn) and give its recorded Potency.
[reply] 5.01 µM (active)

[ask] Consider the molecule OC(c1cc(C(F)(F)F)nc2c(Cl)cc(Cl)cc12)C1CCCCN1 (stereo not drawn) and give its recorded Potency.
[reply] 0.0282 µM (active)

[ask] Consider the molecule O=C(CCl)Nc1ccc(Sc2ccc(NC(=O)CCl)cc2)cc1 and give its recorded Potency.
[reply] 2.51 µM (active)

[ask] Consider the molecule COc1ccc(C(=O)NC(=S)N(C)C2CCCCC2)cc1 and give its recorded Potency.
[reply] inactive
